// data source = patent US20230192819A1

molecular target: C52Hk S. African variant (Acro) spike protein (SARS-CoV-2, UniProt P0DTC2 16-1213); assay: SPR (Carterra LSA); […]; 1:1 model; […]
Listed binders paired with reported kon
The reply should contain only the number, in M⁻¹ s⁻¹.

# BINDER, MEASURED_QUANTITY, OBS_VALUE
records = [
    ("Antibody 1-11 (Fc fusion) EVQLVESGGGLVQPGGSLRLSCAASGFTFDDYVMGWFRQAPGKEREFVAVISWTGESTLYADSVKGRFTISADNSKNTAYLQMNSLKPEDTAVYYCAAFDGYSGSDWGQGTLVTVSS", "kon", 380000),
    ("Antibody 1-10 (Fc fusion) EVQLVESGGGLVQPGSSLRLSCAASGGTFSSIGMGWFRQAPGKEREFVAAISWDGGATAYADSVKGRFTISADNSKNTAYLQMNSLKPEDTAVYYCAKEDVGKPFDWGQGTLVTVSS", "kon", 64000),
    ("Antibody 1-15 (Fc fusion) EVQLVESGGGLVQPGGSLRLSCAASGGIFSDMFMGWFRQAPGKEREFVATIDWSGDTAFYADSVKGRFTISADNSKNTAYLQMNSLKPEDTAVYYCAVDLSGDAVYDWGQGTLVTVSS", "kon", 270000),
]

Could you now look at the following binder, please?
Reported kon for Antibody 1-1 (Fc fusion) EVQLVESGGGLVQPGGSLRLSCAASGSIGSINAMGWFRQAPGKEREWVAGISNGGTTNYADSVKGRFTISADNSKNTAYLQMNSLKPEDTAVYYCAADGVPEYSDYASGPVWGQGTLVTVSS was 540000
